# key: entry, value: TGI
test system: SNB-75 CNS; assay: NCI tumour cell line growth inhibition, 48 h

# Compound, TGI
data = [
    ("Cc1nc(Nc2ccc(Cl)cc2Cl)sc1C(=O)Nc1ccccc1", "> 100 µM"),
]

[in] Param item = OC1(c2ccccc2)CSc2ncnn21 (centres undefined) ; retrieve measured TGI.
[out] > 100 µM

[in] Which value of TGI has been reported for CC(C)=C1C(=O)c2c(Cl)sc(Cl)c2C1=O in the records?
[out] 59.9 µM

[in] Name the reported TGI value associated with the compound COc1ccc(/C(COc2ccc3c(c2)oc(=O)c2cc(OC)ccc23)=N/O)cc1
[out] 9.98 µM

[in] Entry under review: CCOC(=O)Cc1cc(=O)oc2cc(O)ccc12 . Reported TGI?
[out] > 100 µM

[in] // returns reported TGI for input Clc1nc(Cl)c2ncn(CC#CCn3cnc4c(Cl)nc(Cl)nc43)c2n1
[out] 7.76 µM
